target: hERG (KCNH2) (Homo sapiens, UniProt Q12809); experiment: Displacement of [35S]MK-0499 from human ERG at 10 uM after >90 mins by scintillation counting; details: probe [35S]MK-0499
Sequence (Q12809 whole entry): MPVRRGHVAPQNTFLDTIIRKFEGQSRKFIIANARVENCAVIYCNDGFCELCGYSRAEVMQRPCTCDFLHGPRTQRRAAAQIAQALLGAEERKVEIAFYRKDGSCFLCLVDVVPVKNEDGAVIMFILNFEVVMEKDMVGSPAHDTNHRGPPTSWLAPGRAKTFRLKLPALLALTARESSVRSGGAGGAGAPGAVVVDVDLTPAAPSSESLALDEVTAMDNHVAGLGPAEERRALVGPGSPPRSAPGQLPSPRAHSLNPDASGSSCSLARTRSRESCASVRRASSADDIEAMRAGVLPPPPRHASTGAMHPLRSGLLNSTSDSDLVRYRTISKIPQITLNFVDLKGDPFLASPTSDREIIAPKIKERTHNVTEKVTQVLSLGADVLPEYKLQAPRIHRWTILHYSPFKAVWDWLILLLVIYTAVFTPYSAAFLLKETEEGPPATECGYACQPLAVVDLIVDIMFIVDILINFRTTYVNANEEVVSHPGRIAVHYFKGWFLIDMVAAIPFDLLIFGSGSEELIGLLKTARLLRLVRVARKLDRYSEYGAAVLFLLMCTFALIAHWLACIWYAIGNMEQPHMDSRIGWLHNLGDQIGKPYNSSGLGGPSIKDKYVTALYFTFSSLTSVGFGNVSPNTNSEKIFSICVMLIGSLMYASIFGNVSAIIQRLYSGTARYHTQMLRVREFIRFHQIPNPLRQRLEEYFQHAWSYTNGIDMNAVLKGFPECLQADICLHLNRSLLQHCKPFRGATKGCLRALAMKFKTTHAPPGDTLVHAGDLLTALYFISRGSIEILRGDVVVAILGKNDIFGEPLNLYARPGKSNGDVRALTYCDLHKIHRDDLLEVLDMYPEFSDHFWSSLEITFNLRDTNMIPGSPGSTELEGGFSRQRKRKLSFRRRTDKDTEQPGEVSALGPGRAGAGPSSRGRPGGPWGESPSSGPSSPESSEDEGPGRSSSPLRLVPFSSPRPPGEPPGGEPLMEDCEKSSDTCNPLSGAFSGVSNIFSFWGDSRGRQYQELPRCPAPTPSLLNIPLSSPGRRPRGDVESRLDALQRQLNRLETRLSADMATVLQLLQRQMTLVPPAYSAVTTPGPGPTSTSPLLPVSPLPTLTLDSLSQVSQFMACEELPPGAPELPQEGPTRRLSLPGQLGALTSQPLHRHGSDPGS
Recorded Endpoint: inhibition at […], 10 µM (%)
Write down the numeric answer in % and omit the unit.

Under hERG (KCNH2) (Homo sapiens, UniProt Q12809): report inhibition at […], 10 µM of CCCCCCCC(O)(C(N)=O)c1cccc(Cl)c1 (racemic) .
51

* * *

target: hERG (KCNH2) (Homo sapiens); test: Displacement of [35S]MK-0499 from human ERG at 1 uM after >90 mins by scintillation counting; details: probe [35S]MK-0499
Recorded Endpoint: inhibition at […], 1 µM (%)
Write down the numeric answer in % and omit the unit.

Give the measured inhibition at […], 1 µM for CCCCCCCC(O)(C(N)=O)c1cccc(Cl)c1 (racemic)
17
